Origin of measurements: PubChem BioAssay (NCI)

Exercise: for every item that follows, state its recorded TGI.
Tested on: ACHN renal
assay_summary: NCI tumour cell line growth inhibition, 48 h

Study these solved cases before continuing.
{"columns": ["molecule", "TGI"],
 "data": [
  ["COc1ccc(-c2csc3c2-n2cccc2C3=O)cc1", "> 90.9 µM"],
  ["O=C(CNc1ccccc1[N+](=O)[O-])Nn1cnc2ccc(S(=O)(=O)Nc3ccccc3[N+](=O)[O-])cc2c1=O", "> 100 µM"],
  ["COc1cc2c(cc1OS(C)(=O)=O)N=C[C@@H]1CCCN1C2=O", "> 100 µM"],
  ["O=C(O)C(Cc1cc(I)c(O)c(I)c1)C1CCCCC1 (stereo unspecified)", "> 100 µM"]
]}

Hello, I would appreciate it if you could give TGI for each entry below.
1. COC(=O)c1cc2ccc(O)c(O)c2cn1
2. CN1CCN(Cc2ccc(NC(=O)c3cncc(C#Cc4cnc(N)c5ncccc45)c3)cc2C(F)(F)F)CC1

["43.6 µM", "1.12 µM"]

Your task in this section: give TGI for each listed record.
1. O=C(c1ccc2ccccc2c1)C1(I)S(=O)(=O)OCCOS1(=O)=O
2. CS(=O)(=O)OCCN(CCOS(C)(=O)=O)c1ccc(C=Nc2ccc(-c3csc(COc4ccccc4)n3)cc2)cc1
3. COC(=O)/C=C1\SC2(OC1=Nc1ccccc1)C1CC3CC(C1)CC2C3 (stereo unspecified)
4. O=C1C=C(Nc2ccccc2)c2ccccc2C1=O
5. C=C1c2nc3ccccc3n2C=C(c2ccc(OC)cc2)N1c1ccc(OCCN2CCCCC2)cc1
6. CC(C)(C)C(=O)/C=C(\OB(F)F)C(C)(C)C
7. CC1=C(O)C(=O)C=C2C1=CC=C1[C@@]2(C)CC[C@@]2(C)C3C[C@@H](C)C(=O)[C@@H](O)[C@]3(C)CC[C@]12C (stereo partly specified)
8. CC(=O)OCC1OC(n2c3c(c(-c4ccc(C)cc4)c(C#N)c2=S)C(=O)CC(C)(C)C3)C(OC(C)=O)C(OC(C)=O)C1OC(C)=O (stereo unspecified)

["> 100 µM", "2.32 µM", "> 100 µM", "7.88 µM", "> 81.7 µM", "> 100 µM", "3.07 µM", "> 100 µM"]

====

Exercise: for every item that follows, state its recorded TGI.
System: A549 NSCLC
assay_summary: NCI tumour cell line growth inhibition, 48 h
Where a SMILES comes first, the peptide text is derived from it. Bridges are numbered along the chain shown (N, C = ends). The star is where a group is joined. Cbz = O=C(OCc1ccccc1)*

{"columns": ["compound", "quantity_kind", "result"],
 "data": [
  ["O=C(/C=C/c1ccccc1)NC1C=Nc2ccc([N+](=O)[O-])cc2NC1=O (configuration not stated)", "TGI", "> 100 µM"],
  ["CNC(=O)C1CCCCNC(=O)CCC(NC(=O)OCc2ccccc2)C(=O)N1 (stereo not drawn) (Cbz-Glu-Lys-NHMe; lactam 1-2; configuration not given here)", "TGI", "> 100 µM"],
  ["C#CCN(Cc1ccc2nc(-c3ccccc3)c(Cl)nc2c1)c1ccc(F)cc1", "TGI", "> 100 µM"],
  ["Cc1cn([C@@H]2O[C@H](CO[Si](C)(C)C(C)(C)C)[C@]3(O[C@H]3C(=O)NO)[C@H]2O[Si](C)(C)C(C)(C)C)c(=O)[nH]c1=O", "TGI", "3.63 µM"]
]}

# return TGI for each item in the list
1. COc1ccc(-c2csc3c2-n2cccc2C3=O)cc1
2. O=S1OC(c2ccccc2)(c2ccccc2)C(c2ccccc2)(c2ccccc2)O1
3. COc1cc2c(cc1OS(C)(=O)=O)N=C[C@@H]1CCCN1C2=O
4. C/C(=C\C(=O)O[C@H]1[C@@H]2[C@H](C)CC[C@H]2[C@]2(C)O[C@@]1(C1CCCCC1)C[C@H]2OC(=O)CO)c1ccccc1
5. COCCN(C(=O)c1ccccc1)C1CCC2(SCCS2)c2[nH]c3ccccc3c21 (configuration not stated)
6. CN(C)CCNC(=O)c1cc2c3cc(Cl)ccc3[nH]c2c2ncccc12
7. O=C1CSC(c2c[nH]c3ccccc23)N1c1cccc(Cl)c1 (configuration not stated)
8. Cc1nc2ccc(F)cc2c2c1CCS2

1. > 100 µM
2. > 100 µM
3. > 100 µM
4. 12.4 µM
5. 68.2 µM
6. 4.7 µM
7. > 100 µM
8. > 100 µM
